Some compounds, each annotated with its measured IC50.
Molecular target: K-Ras G13C (Homo sapiens (Human), UniProt P01116+P62937, G13C)
Sequence (P01116-2 other isoform, or with tags, fused parts or gaps G13C): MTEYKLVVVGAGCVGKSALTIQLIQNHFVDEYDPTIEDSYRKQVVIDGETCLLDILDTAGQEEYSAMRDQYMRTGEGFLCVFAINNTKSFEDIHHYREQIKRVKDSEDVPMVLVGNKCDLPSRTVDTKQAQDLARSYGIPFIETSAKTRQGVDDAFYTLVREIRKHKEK
Sequence (P62937 whole entry): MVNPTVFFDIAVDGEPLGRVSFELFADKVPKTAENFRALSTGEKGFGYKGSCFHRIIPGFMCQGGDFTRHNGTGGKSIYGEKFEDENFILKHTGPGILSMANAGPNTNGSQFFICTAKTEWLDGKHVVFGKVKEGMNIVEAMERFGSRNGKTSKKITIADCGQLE
Assay: Ras-Raf (BRAF RBD) disruption / FRET / MOA assay, KRAS G13C
Format: biochemical
Conditions: KRAS G13C; Ras-Raf disruption/FRET/MOA assay; read-out: IC50* KRAS G13C FRET data
Description: The purpose of this biochemical assay is to measure the ability of test compounds to facilitate ternary complex formation between a nucleotide-loaded Ras isoform and cyclophilin A; the resulting ternary complex disrupts binding to a BRAF^RBD construct, inhibiting Ras signaling through a RAF effector. Compound is present in plate wells as a 10-point 3-fold dilution series starting at a final concentration of 30 μM. […]
measuredQuantity: IC50

>>> endpointresult("CCn1c(-c2cccnc2)c2c3cc(ccc31)-c1cccc(c1)C[C@H](NC(=O)[C@H](C(C)C)N(C)C(=O)[C@H]1CCN(C(=O)C#CCN3CCOCC3)C1)C(=O)N1CCC[C@H](N1)C(=O)OCC(C)(C)C2 [Example A195]")
"> 10000 nM"
>>> endpointresult("CCn1c(-c2cccnc2)c2c3cc(ccc31)-c1cc(O)cc(c1)C[C@H](NC(=O)[C@H](C(C)C)N(C)C(=O)[C@H]1CCN(C(=O)C#CCN(C)C)C1)C(=O)N1CCC[C@H](N1)C(=O)OCC(C)(C)C2 [Example A142]")
"100 to 1000 nM"
>>> endpointresult("C=CC(=O)N1CC(OC[C@H](C(=O)N[C@H]2Cc3cccc(c3)-c3ccc4c(c3)c(c(-c3cccnc3[C@H](C)OC)n4CC(F)(F)F)CC(C)(C)COC(=O)[C@@H]3CCCN(N3)C2=O)C(C)C)C1 (atropisomer, axis not shown) [Example A344]")
"100 to 1000 nM"
>>> endpointresult("C/C=C/C(=O)N1CC2(CCN(C(=O)N(C)[C@H](C(=O)N[C@H]3Cc4nc(cs4)-c4ccc5c(c4)c(c(-c4cccnc4[C@H](C)OC)n5CC)CC(C)(C)COC(=O)[C@@H]4CCCN(N4)C3=O)C(C)C)CC2)C1 (atropisomer, axis not shown) [Example A671]")
"100 to 1000 nM"
>>> endpointresult("C=CC(=O)N(C)CCN1CCN(C(=O)N(C)[C@H](C(=O)N[C@H]2Cc3cccc(c3)-c3ccc4c(c3)c(c(-c3cccnc3[C@H](C)OC)n4CC)CC(C)(C)COC(=O)[C@@H]3CCCN(N3)C2=O)C(C)C)CC1 (atropisomer, axis not shown) [Example A539]")
"10 to 100 nM"
>>> endpointresult("C=CC(=O)N1CC[C@H](C(=O)N(C)[C@H](C(=O)N[C@H]2Cc3cc(O)cc(c3)-c3ccc4c(c3)c(c(-c3ccc(CN(C)C)c(COC)c3)n4CC)CC(C)(C)COC(=O)[C@@H]3CCCN(N3)C2=O)C(C)C)C1 [Example A111]")
"1000 to 10000 nM"
